Data origin, for the record: patent US10703746B2

# Target System: IDH1 R132H (Homo sapiens, UniProt O75874, R132H)
# Sequence (O75874 whole entry R132H): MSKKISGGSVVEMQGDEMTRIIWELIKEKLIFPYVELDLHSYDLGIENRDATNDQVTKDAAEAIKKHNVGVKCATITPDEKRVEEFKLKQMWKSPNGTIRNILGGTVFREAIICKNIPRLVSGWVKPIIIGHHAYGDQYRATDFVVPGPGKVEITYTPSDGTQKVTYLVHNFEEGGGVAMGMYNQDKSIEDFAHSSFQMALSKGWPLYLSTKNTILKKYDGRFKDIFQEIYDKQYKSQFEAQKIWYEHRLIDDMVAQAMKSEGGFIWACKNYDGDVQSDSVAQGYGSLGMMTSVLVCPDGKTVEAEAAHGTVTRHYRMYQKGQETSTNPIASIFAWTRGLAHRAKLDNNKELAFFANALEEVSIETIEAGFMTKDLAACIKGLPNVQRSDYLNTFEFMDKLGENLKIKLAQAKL
# Protocol Notes: IDH1 R132H enzymatic assay (NADPH depletion coupled to diaphorase/resazurin)
# Type: biochemical
# Study Conditions: IDH1 R132H enzymatic inhibition, IC50 class
# Method: Assays were conducted in a 1536-well black solid-bottom plate with a final assay volume of 9 μL. Specifically, for IDH1 R132H, 3 μL of enzyme (4 mM β-ME, 0.0005 mg/mL IDH1 R132H, 150 mM NaCl, 20 mM Tris pH 7.5, 10 mM MgCl2, 0.05% BSA) were added to the plate, followed by the addition of 23 nL of test compound in DMSO. […]
pIC50: −log10 of the molar value.
Measured Endpoint: pIC50

Here's what some known entries look like.
Name the recorded pIC50 of the molecule listed here: "CC1(C)CC(=O)c2cc(-c3nc(-c4ccc(Cl)cc4)cs3)c(=O)n(-c3ccccc3OCc3ccccc3)c2C1"
< 4.70

// fetch pIC50 given entry "CCc1cccc(CC)c1-n1c(C(C)C)c(C(=O)OC)cc(-c2nc(-c3ccc(Cl)cc3)cs2)c1=O"
5.30 to 6.00

Using the record for "CCc1cccc(CC)c1-n1c2c(cc(-c3nc(-c4ccc(C)nc4)c(C)s3)c1=O)C(=O)CC(C)(C)C2" , state its measured pIC50.
5.30 to 6.00

---
Report measured pIC50; entry is "CCc1cccc(CC)c1-n1c(C(C)C)c(C(=O)N2CCNC(=O)C2)cc(-c2nc(-c3ccc(Cl)cc3)cs2)c1=O"
6.00 to 6.52

Check the records and state pIC50 for "CCOc1ccc(C)cc1-n1c(CC(C)C)c(C(=O)N2CCNCC2)cc(-c2nc(-c3ccc(C(F)F)cc3)cs2)c1=O"
> 6.52

Annotate the molecule "CC1(C)CC(=O)c2cc(-c3nc(-c4ccc(Cl)cc4)cs3)c(=O)n(-c3ccccc3N3CCOCC3)c2C1" with its measured pIC50.
5.30 to 6.00

Give the measured pIC50 for "CC1(C)CC(=O)c2cc(-c3nc(-c4ccc(Cl)cc4)cs3)c(=O)n(-c3ccccc3)c2C1"
4.70 to 5.30

Give reported pIC50 value for "COc1ccc(OC)c(-n2c3c(cc(-c4nc5cc(Cl)ccc5s4)c2=O)C(=O)CC(C)(C)C3)c1"
> 6.52

----------
Overview of recorded pIC50 for various molecules
# Target System: IDH1 R132H (Homo sapiens, UniProt O75874, R132H)
# Protocol Notes: IDH1 R132H enzymatic assay (NADPH depletion coupled to diaphorase/resazurin)
# Type: biochemical
# Study Conditions: IDH1 R132H enzymatic inhibition, IC50 class
pIC50: −log10 of the molar value.

Hello, please tell me recorded pIC50 for this one: CCc1cccc(CC)c1-n1c(C)c(C(=O)NCCCNC)cc(-c2nc(-c3ccc(Cl)cc3)cs2)c1=O [Compound 304]
5.30 to 6.00

Kindly indicate its recorded pIC50. Item: CCc1cccc(CC)c1-n1c(CC(C)C)c(C(=O)N2CCNCC2)cc(-c2nc(-c3ccc(Cl)c(OC)c3)c(C)s2)c1=O [Compound 633]
6.00 to 6.52

Consider the molecule COc1ccc(OC)c(-n2c3c(cc(-c4nc(-c5ccc(Cl)cc5)cs4)c2=O)C(=O)N(C(=O)OC(C)(C)C)CC3)c1 [Compound 23] and give its recorded pIC50.
< 4.70

Give me measured pIC50, please, for this molecule: CCc1cccc(CC)c1-n1c(CC(C)C)c(C(=O)N2CCNC(c3ccccc3)C2)cc(-c2nc(-c3ccc(Cl)cc3)cs2)c1=O (centres unmarked) [Compound 202]
6.00 to 6.52

# input for lookup
Hello, please tell me recorded pIC50 for this one: COc1ccc(OC)c(-n2c3c(cc(-c4nnn(-c5ccc(Cl)cc5)n4)c2=O)C(=O)CC(C)(C)C3)c1 [Compound 287]
< 4.70
